- test target: recombinant human PDGF-BB (human, UniProt P01127 82-190, biotin-labelled in the binding and competition ELISAs (sites not given))
- Sequence (P01127 82-190 limits assumed): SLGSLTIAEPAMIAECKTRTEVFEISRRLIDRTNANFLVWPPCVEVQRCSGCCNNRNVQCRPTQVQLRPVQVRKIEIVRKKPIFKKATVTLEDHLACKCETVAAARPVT
- test protocol: cell-based or functional assay
The following binders are shown together with reported huPDGF-BB Neutralization Potency (nM) in NIH-3T3 Cells values.
The reply should be a number in nM, with the unit left off.

binder	recorded measurement
chBDI-5G2 (antibody, human IgG1, V domains shown, also called chimeric BDI-5G2-F9) VH: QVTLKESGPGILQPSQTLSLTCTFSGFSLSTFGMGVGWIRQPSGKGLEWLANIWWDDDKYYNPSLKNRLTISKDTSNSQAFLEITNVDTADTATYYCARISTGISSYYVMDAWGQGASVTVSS VL: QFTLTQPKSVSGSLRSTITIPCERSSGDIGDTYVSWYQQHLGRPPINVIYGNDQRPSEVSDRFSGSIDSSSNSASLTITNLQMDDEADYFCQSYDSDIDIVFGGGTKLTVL	0.181

Supply recorded huPDGF-BB Neutralization Potency (nM) in NIH-3T3 Cells for chBFU-3E2 half-body (antibody, V domains shown) VH: EVQLQQSGPELQRPGASVKLSCKASGYTFTESYMYWVKQRPEQSLELIGRIDPEDGSTDYVEKFKNKATLTADTSSNTAYMQLSSLTSEDSATYFCARFGARSYFYPMDAWGQGTSVTVSS VL: DTVLTQPPALAVSPGERVSISCRASESVSTLMHWYQQKPGQQPRLLIYGASNLESGVPARFSGSGSGTDFTLTIDPVEADDTATYFCQQSWNDPWTFGGGTKLELK here. 2.49
